Biological target: UniProt:P11880
Assay: biochemical
Details: 0.25 h, Table S1, PKIS screening; read-out: RA [%] at 100 µM MurF
MEASURED_METRIC: remaining activity at 100 µM (%)
Write the answer as a number in %, unit excluded.

// worked examples, remaining activity at 100 µM included
Nc1nccc(-c2c(-c3ccc(F)cc3)nn3cc(C(F)(F)F)ccc23)n1 [GW568326X]; 78
C[C@@H](Oc1cc(-n2cnc3ccc(OCC4CCN(C)CC4)cc32)sc1C(N)=O)c1ccccc1Cl [GSK571989A]; 53
Cc1nn(C)c2cc(N(C)c3ccnc(Nc4cccc(S(N)(=O)=O)c4)n3)ccc12 [GW770220A]; 74

--- query ---
Return reported remaining activity at 100 µM; argument: NS(=O)(=O)c1ccc(N/N=C2\C(=O)Nc3ccc4ncccc4c32)cc1 [GW305178X]
56

---

Target: UniProtKB P11880
Experiment: biochemical
Conditions: Table S3, aza stilbene compounds
MEASURED_METRIC: RA (%) MurF
Write the answer as a number in %, unit excluded.

// worked examples, RA (%) MurF included
CNC(=O)c1cncc(C=Cc2ccccc2C)c1 [Compound 8]; 85
CNC(=O)c1cncc(C=Cc2c(Cl)cccc2Cl)c1 [Compound 10]; 77
Cc1cc(O)cc(C)c1C=Cc1cncc(-c2nn[nH]n2)c1 [Compound 7]; 90

Return reported RA (%) MurF; argument: COC(=O)c1cncc(C=Cc2c(C)cc(O)cc2C)c1 [Compound 15]
81

Let us now turn to Cc1cc(O)cc(C)c1C=Cc1cncc(C(=O)OC(C)(C)C)c1 [Compound 16]
69

Let us now turn to Cc1cc(-c2ccccn2)cc(C)c1C=Cc1cncc(-c2nn[nH]n2)c1 [Compound 6]
76

Let us now turn to CNC(=O)Oc1cc(C)c(C=Cc2cncc(C(=O)NC)c2)c(C)c1 [Compound 13]
87

Let us now turn to CCc1cccc(CC)c1C=Cc1cncc(C(=O)NC)c1 [Compound 12]
76

Let us now turn to CNC(=O)c1cncc(C=Cc2c(C)cccc2C)c1 [Compound 9]
54

---

Molecular target: MurD from E. coli (Escherichia coli)
Sequence (P14900 whole entry): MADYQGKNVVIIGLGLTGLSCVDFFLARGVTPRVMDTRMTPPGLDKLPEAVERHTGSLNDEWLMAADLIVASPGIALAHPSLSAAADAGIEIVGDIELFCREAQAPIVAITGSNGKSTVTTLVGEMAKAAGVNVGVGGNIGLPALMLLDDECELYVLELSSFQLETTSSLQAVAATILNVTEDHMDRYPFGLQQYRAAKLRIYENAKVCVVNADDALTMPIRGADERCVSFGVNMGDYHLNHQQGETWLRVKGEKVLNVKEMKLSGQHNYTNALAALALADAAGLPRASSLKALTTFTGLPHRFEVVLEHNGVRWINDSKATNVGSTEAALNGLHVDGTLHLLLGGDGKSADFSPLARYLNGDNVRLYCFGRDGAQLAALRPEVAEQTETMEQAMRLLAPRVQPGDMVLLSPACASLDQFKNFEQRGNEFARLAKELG
Assay: Steady-state kinetic analysis on MurD
Format: biochemical
Details: Ki (µM), substrate UMA varied; fixed ATP 400 µM, D-Glu 100 µM
MEASURED_METRIC: Ki (µM)
Write the answer as a number in µM, unit excluded.

Return reported Ki; argument: `Cc1cc(-c2ccco2)cc(C)c1/C=C/c1cncc(-c2nn[nH]n2)c1`
14.8

---

Target: UniProt:P22188
Sequence (P22188 whole entry): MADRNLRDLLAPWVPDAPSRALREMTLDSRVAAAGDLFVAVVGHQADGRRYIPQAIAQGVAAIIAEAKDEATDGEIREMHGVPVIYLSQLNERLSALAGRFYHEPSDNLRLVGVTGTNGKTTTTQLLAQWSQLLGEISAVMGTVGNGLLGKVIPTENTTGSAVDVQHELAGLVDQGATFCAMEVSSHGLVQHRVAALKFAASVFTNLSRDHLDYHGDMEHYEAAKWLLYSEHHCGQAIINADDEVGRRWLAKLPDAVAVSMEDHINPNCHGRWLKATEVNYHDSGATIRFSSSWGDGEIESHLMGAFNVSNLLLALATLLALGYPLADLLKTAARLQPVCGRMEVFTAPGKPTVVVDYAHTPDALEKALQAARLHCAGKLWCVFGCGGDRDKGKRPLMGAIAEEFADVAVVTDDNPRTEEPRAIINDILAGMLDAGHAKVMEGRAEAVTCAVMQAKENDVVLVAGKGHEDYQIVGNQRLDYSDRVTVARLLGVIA
Experiment: Malachite green inhibition assay, MurE
Format: biochemical
Conditions: residual activity at 100 µM compound; Table 1
MEASURED_METRIC: MurE RA [%] (%)
Write the answer as a number in %, unit excluded.

Cc1cc(-c2ccco2)cc(C)c1/C=C/c1cncc(-c2nn[nH]n2)c1 [Compound 1]; 49

// fetch UniProt:P22188 MurE RA [%] for COc1ccc(-c2nn3ncccc3c2-c2ccnc(Nc3cccc(C(F)(F)F)c3)n2)cc1 [Compound 3]
84

Let us now turn to Nc1ccc(C#Cc2cncnc2Nc2ccc(OCc3cccc(F)c3)c(Cl)c2)cc1 [Compound 2]
50

Let us now turn to N#Cc1ccc(Oc2nccc(-c3c(-c4ccc(F)cc4)ncn3C3CCNCC3)n2)cc1 [Compound 4]
56

Let us now turn to CCCN1CCCC(c2ccc(Nc3nc(Nc4cc(F)ccc4C(N)=O)c4cc[nH]c4n3)c(OC)c2)C1 (centres unmarked) [Compound 5]
26

---

Target: UniProt P17952
Test: Malachite green inhibition assay, MurC
Format: biochemical
Details: 0.25 h, Table S1, PKIS screening; read-out: RA [%] at 100 µM MurC
# remaining activity at 100 µM listing for each entry below
Write the answer as a number in %, unit excluded.

// worked examples, remaining activity at 100 µM included
CCc1cccc(CC)c1/C=C/c1cncc(C(=O)NC)c1 [GW450241X]; 67
CS(=O)(=O)CCNCc1ccc(-c2ccc3ncnc(Nc4ccc(OCc5cccc(F)c5)c(C(F)(F)F)c4)c3c2)o1 [GW576484X]; 100

Return reported remaining activity at 100 µM; argument: Cc1ccc(Nc2ccnc(Nc3cccc(C(N)=O)c3)n2)cc1O [GW575808A]
100

Let us now turn to O=S(=O)(CCNCc1ccc(-c2ccc3ncnc(Nc4ccc(OCc5cccc(F)c5)c(Cl)c4)c3c2)o1)c1ccccc1 [GW633459A]
100

---

Molecular target: E. coli MurC (Escherichia coli, UniProt P17952)
Sequence (P17952 whole entry): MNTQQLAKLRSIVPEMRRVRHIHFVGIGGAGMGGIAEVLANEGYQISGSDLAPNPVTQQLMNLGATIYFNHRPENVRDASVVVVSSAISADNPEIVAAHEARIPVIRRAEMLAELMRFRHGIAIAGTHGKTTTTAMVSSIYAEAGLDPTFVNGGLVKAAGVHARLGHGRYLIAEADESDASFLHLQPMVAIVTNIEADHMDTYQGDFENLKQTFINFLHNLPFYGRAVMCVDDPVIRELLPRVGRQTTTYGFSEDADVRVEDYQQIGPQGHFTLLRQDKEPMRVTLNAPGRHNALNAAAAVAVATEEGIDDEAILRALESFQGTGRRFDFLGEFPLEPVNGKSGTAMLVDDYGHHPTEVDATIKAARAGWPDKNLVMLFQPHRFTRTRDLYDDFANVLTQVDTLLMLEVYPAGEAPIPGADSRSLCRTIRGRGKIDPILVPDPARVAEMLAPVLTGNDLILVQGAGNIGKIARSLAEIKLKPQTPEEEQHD
Experiment: Malachite green inhibition assay, MurC
Type: biochemical
Conditions: 0.25 h, Table S1, PKIS screening; read-out: RA [%] at 100 µM MurC
Each record's remaining activity at 100 µM is compared with group 1: < 70%; group 2: ≥ 70% and < 90%; group 3: ≥ 90% to give its class.

Answered examples (6):
Nc1nc(-c2ccc(F)cc2)c(-c2ccc3ncccc3n2)s1 [GW785804X]; group 3
CCn1c(-c2nonc2N)nc2c(C#CCN)ncc(OCCCN)c21 [GSK561866B]; group 1
FC(F)(F)c1cccc(Nc2nccc(-c3cnn4nc(-c5ccccc5)ccc34)n2)c1 [GW819077X]; group 1
Nc1nccc(-c2c(-c3ccc(F)cc3)ncn2CCCN2CCOCC2)n1 [SB-216385]; group 2
COc1cc2ncnc(Nc3ccc4c(cnn4Cc4ccccc4)c3)c2cc1OC [GW282449A]; group 1
c1ccc(Nc2ncc(-c3ccccc3)o2)cc1 [GW549390X]; group 2

Into which bin does this molecule go? Cc1cc(Cl)cc2c1NC(=O)C2=NNc1ccc(S(N)(=O)=O)cc1 [GW279320X]
group 2

Let us now turn to CCn1c(-c2nonc2N)nc2c(C#CC(C)(C)O)nc(OCCNC)cc21 [GSK949675A]
group 2

Let us now turn to CNC(=O)c1cncc(/C=C/c2ccccc2C)c1 [GW445015X]
group 3

---

# MurF RA [%] listing for each entry below
Target: E. coli MurF (Escherichia coli, UniProt P11880)
Sequence (P11880 whole entry): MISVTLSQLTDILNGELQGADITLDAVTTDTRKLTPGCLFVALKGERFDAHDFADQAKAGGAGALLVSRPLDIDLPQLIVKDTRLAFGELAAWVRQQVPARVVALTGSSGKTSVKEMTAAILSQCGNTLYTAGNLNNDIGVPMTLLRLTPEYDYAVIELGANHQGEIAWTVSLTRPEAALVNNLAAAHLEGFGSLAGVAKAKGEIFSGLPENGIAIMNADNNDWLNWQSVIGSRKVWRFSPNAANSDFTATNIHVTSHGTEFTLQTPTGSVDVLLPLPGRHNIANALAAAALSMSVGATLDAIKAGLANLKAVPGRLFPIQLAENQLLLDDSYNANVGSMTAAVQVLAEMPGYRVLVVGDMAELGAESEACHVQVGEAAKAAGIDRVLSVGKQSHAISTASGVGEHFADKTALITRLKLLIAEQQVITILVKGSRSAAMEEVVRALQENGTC
Assay: biochemical
Details: residual activity at 100 µM compound; Table 1

// worked examples, MurF RA [%] included
COc1ccc(-c2nn3ncccc3c2-c2ccnc(Nc3cccc(C(F)(F)F)c3)n2)cc1 [Compound 3]; 100%
Cc1cc(-c2ccco2)cc(C)c1/C=C/c1cncc(-c2nn[nH]n2)c1 [Compound 1]; 26%
N#Cc1ccc(Oc2nccc(-c3c(-c4ccc(F)cc4)ncn3C3CCNCC3)n2)cc1 [Compound 4]; 51%
Nc1ccc(C#Cc2cncnc2Nc2ccc(OCc3cccc(F)c3)c(Cl)c2)cc1 [Compound 2]; 30%

--- query ---
// fetch E. coli MurF (Escherichia coli, UniProt P11880) MurF RA [%] for CCCN1CCCC(c2ccc(Nc3nc(Nc4cc(F)ccc4C(N)=O)c4cc[nH]c4n3)c(OC)c2)C1 (centres unmarked) [Compound 5]
16%

---

Target: E. coli MurC (Escherichia coli, UniProt P17952)
Assay: Malachite green inhibition assay, MurC
Type: biochemical
Conditions: Table S3, aza stilbene compounds
Mark yes (1) for reported RA (%) MurC of 70% or greater; mark no (0) for anything smaller.

Answered examples (7):
Cc1cc(O)cc(C)c1C=Cc1cncc(C(N)=O)c1; yes (1)
CNC(=O)c1cncc(C=Cc2c(C)cccc2C)c1; yes (1)
CNC(=O)c1cncc(C=Cc2ccccc2C)c1; yes (1)
Cc1cc(O)cc(C)c1C=Cc1cncc(C(=O)OC(C)(C)C)c1; yes (1)
CNC(=O)c1cncc(C=Cc2c(Cl)cccc2Cl)c1; yes (1)
COC(=O)c1cncc(C=Cc2c(C)cc(O)cc2C)c1; yes (1)
Cc1cc(-c2ccccn2)cc(C)c1C=Cc1cncc(-c2nn[nH]n2)c1; no (0)

In plain terms: is recorded RA (%) MurC at least 70% for `CCc1cccc(CC)c1C=Cc1cncc(C(=O)NC)c1` ?
no (0)

---

Molecular target: E. coli MurC (Escherichia coli)
Test: Malachite green inhibition assay, MurC
Format: biochemical
Conditions: 0.25 h, read-out: RA [%] at 100 µM MurC, Table S1, PKIS screening
# remaining activity at 100 µM listing for each entry below
Write the answer as a number in %, unit excluded.

// worked examples, remaining activity at 100 µM included
Cc1ccc2c(-c3ccnc(Nc4ccc5c(c4)OCCO5)n3)c(-c3ccc(C(F)(F)F)cc3)nn2n1 [GW832467X]; 22
CNC(=O)c1ncccc1Nc1nc(Nc2cc3c(cc2OC)CCCN3C(=O)CN(C)C)nc2[nH]ccc12 [GSK2220400A]; 69
COc1cc(N2CCN(C(C)C)CC2)ccc1Nc1nc(Nc2ccc(F)cc2C(N)=O)c2cc[nH]c2n1 [GSK1220512A]; 2

--- query ---
Return reported remaining activity at 100 µM; argument: CN1CCC(n2cnc(-c3ccc(F)cc3)c2-c2ccnc(NCCO)n2)CC1 [SB-226879]
65

Cited source: paper PMC6522912
